# maps each entry to its pEC50
- SYSTEM: human parathyroid cell Ca^2+ receptor (hPCaR) (Homo sapiens)
- Sequence (P41180 20-1078): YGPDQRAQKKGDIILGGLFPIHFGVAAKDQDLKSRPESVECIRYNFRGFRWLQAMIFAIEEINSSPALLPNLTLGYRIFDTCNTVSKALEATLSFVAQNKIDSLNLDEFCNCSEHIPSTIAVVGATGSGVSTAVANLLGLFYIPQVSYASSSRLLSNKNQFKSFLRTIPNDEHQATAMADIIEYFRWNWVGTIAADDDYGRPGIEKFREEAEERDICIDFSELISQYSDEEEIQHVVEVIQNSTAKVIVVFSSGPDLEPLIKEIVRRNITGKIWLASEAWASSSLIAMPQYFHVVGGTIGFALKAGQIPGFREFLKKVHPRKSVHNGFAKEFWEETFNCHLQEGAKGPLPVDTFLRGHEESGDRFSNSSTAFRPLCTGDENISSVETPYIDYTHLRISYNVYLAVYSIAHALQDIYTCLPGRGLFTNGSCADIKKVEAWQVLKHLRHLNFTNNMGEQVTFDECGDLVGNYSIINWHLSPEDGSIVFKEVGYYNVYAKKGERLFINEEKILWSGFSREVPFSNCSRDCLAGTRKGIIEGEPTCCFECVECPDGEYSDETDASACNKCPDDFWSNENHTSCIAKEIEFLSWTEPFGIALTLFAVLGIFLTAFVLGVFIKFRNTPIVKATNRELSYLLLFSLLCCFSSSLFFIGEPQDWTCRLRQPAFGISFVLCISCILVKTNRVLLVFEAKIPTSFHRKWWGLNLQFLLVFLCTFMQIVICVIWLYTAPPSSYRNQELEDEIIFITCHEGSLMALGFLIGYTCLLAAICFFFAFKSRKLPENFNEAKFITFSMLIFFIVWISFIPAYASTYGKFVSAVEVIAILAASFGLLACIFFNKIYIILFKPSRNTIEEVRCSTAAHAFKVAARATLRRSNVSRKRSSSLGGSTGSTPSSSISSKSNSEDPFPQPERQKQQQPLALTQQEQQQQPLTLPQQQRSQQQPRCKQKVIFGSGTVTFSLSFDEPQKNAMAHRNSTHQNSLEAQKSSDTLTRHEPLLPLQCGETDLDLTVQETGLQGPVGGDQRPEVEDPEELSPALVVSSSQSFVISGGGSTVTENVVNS
- MEASUREMENT PROTOCOL: [Ca2+]i measurement with fluo-3 in HEK 293 4.0-7 cells stably transfected with hPCaR
- CONDITION INFO: fluo-3 fluorescence (485/530 nm), effect on [Ca^2+]i
pEC50: −log10 of the molar value.
ATTRIBUTE MEASURED: pEC50

>>> df
                                     smiles  attribute_measured  result
0  COc1ccc(CN[C@H](C)c2cccc3ccccc23)cc1-c1ccsc1               pEC50  ≥ 5.00
1  COc1ccc(CN[C@H](C)c2cccc3ccccc23)cc1-c1ccc2c(cnn2C)c1               pEC50  ≥ 5.00
2  COc1ccc(CN[C@H](C)c2ccccc2)cc1-c1csc(C)n1               pEC50  ≥ 5.00
3  COc1ccc(CN[C@H](C)c2cccc3ccccc23)cc1-c1ccc2c(c1)nc(C(F)(F)F)n2C               pEC50  ≥ 5.00
4  COc1ccc(CN[C@H](C)c2ccc(C)cc2)cc1-c1cccnc1               pEC50  ≥ 5.00
5  COc1cccc([C@@H](C)NCc2ccc(OC)c(-c3ccc4ncccc4c3)c2)c1               pEC50  ≥ 5.00
6  COc1ccc(CN[C@H](C)c2ccccc2)cc1-c1ccc(C(F)(F)F)cc1               pEC50  ≥ 5.00
7  CCOC(=O)c1ccc(-c2cc(CN[C@H](C)c3cccc(OC)c3)ccc2OC)cc1               pEC50  ≥ 5.00
8  COc1ccc(CN[C@H](C)c2cccc3ccccc23)cc1-c1cnc(OCC(F)(F)F)nc1               pEC50  ≥ 5.00
9  COc1ccc(CN[C@H](C)c2ccccc2)cc1-c1ccc2nonc2c1               pEC50  ≥ 5.00
